system: SK-OV-3; test: NCI tumour cell line growth inhibition, 48 h
The source made the active and inactive calls. Cut-off read from the data, not from the text of the source: active = GI50 up to about 1.1 µM and inactive = higher.
MEASURED QUANTITY: GI50

GI50 value, target or system SK-OV-3, for COc1c(CC(=O)c2ccccc2)c2ccccc2n1C(C)=O : > 100 µM (inactive)

GI50 value, target or system SK-OV-3, for O=C1c2cc(CCl)sc2C(=O)c2ccsc21 : 1.85 µM (inactive)

GI50 value, target or system SK-OV-3, for CCOc1ncn(-c2ccc(NC(=S)Nc3cnccn3)cc2)n1 : > 10 µM (inactive)

GI50 value, target or system SK-OV-3, for COC(=O)/C=C/COCC1C2CCC(=O)C21 (stereo not given) : > 100 µM (inactive)

GI50 value, target or system SK-OV-3, for Cn1cc2ccccc2c1-c1nc(N)nc(F)n1 : > 100 µM (inactive)

GI50 value, target or system SK-OV-3, for CC(=O)Nc1c(C)ccc2c1C(=O)c1ccccc1C2=O : > 100 µM (inactive)

GI50 value, target or system SK-OV-3, for O=C(N/C(=C\c1cc(Cl)ccc1Cl)c1nc2c(O)nc(S)nc2[nH]1)c1ccccc1 : 98.2 µM (inactive)

GI50 value, target or system SK-OV-3, for COc1ccc(C[C@H]2COC(=O)[C@@H]2Cc2ccccc2)cc1OC : > 100 µM (inactive)

GI50 value, target or system SK-OV-3, for Cc1ccc(S(=O)(=O)CC2(Br)CCc3ccccc3C2=O)cc1 (stereo not given) : 39.7 µM (inactive)

GI50 value, target or system SK-OV-3, for CCCCCCCSCC(O)COC(c1ccccc1)(c1ccccc1)c1ccccc1 (stereo not given) : > 100 µM (inactive)

Hello, the source for this data is ChEMBL document CHEMBL1201862, in case you need it.
